# credit: patent US11304929B2

Target: PHGDH (Homo sapiens (Human))
Sequence (O43175 2-533 limits assumed): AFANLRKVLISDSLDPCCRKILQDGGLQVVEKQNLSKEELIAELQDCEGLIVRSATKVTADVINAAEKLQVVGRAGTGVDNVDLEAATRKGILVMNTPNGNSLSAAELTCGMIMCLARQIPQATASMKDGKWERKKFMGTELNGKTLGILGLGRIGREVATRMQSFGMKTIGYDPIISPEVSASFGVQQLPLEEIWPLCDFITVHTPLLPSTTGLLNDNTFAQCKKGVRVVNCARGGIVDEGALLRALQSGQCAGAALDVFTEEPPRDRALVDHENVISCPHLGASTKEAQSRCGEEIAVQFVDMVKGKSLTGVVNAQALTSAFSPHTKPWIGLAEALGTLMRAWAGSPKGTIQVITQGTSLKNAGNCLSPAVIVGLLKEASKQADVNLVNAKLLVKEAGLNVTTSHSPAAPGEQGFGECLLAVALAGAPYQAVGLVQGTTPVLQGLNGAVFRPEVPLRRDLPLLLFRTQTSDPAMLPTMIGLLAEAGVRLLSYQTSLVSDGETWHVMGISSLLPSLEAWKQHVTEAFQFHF
Assay: 3-Phosphoglycerate Dehydrogenase (PHGDH) Fluorescence Intensity Assay, run at two NAD/3-PG ratios: PHGDH_HIGH_NAD/3-PG (250 μM NAD/500 μM 3-PG) and PHGDH_500_NAD/3-PG (500 μM NAD/500 μM 3-PG)
Type: biochemical
Settings: 250 μM NAD/500 μM 3-PG; read-out: IC50 (PHGDH_HIGH_NAD/3-PG)
Recorded Metric: pIC50
Numbers only, as −log10 of the molar value.

Examples with their reported pIC50 follow.
Molecule	Recorded Metric	Result
C[C@H](C(=O)O)S(=O)(=O)c1ccc([C@@H](C)NC(=O)c2cc3cc(Cl)ccc3n2C)cc1	pIC50	6.86
CCOC(=O)CS(=O)(=O)c1ccc([C@@H](C)NC(=O)c2cc(-c3cccc4cc[nH]c34)nn2C)cc1	pIC50	5.52
CCOC(=O)CS(=O)(=O)c1ccc(CNC(=O)c2cc3c(Cl)cc(C)cc3n2C)cc1	pIC50	5.23
CC(=O)OCC(CO)COC(=O)CS(=O)(=O)c1ccc([C@@H](C)NC(=O)c2cc3c(Cl)cc(C)cc3n2C)cc1 (stereo partly shown)	pIC50	6.61
CCOC(=O)CS(=O)(=O)c1ccc([C@@H](C)NC(=O)c2cc(-c3ccccc3)nn2C)cc1	pIC50	5.50
COC(=O)C(C)(C)S(=O)(=O)c1ccc([C@@H](C)NC(=O)c2cc3cc(Cl)ccc3n2C)cc1	pIC50	4.48
CCCC(C(=O)OC)S(=O)(=O)c1ccc([C@@H](C)NC(=O)c2cc3c(Cl)cc(C)cc3n2C)cc1 (stereo partly shown)	pIC50	5.46
C[C@@H](NC(=O)c1cc(-c2ccccc2)nn1C)c1ccc(S(=O)(=O)CC(=O)OCCN(C)C)cc1	pIC50	6.30

I would be grateful if you could provide pIC50 for each of the following entries.
1. Cc1cc(Cl)c2cc(C(=O)N[C@H](C)c3ccc(S(=O)(=O)C(C)C(=O)O)cc3)n(C)c2c1 (stereo partly shown)
2. CCOC(=O)C(C)S(=O)(=O)c1ccc([C@@H](C)NC(=O)c2cc3c(Cl)cc(C)cc3n2C)cc1 (stereo partly shown)
3. COC(=O)CS(=O)(=O)c1ccc(CNC(=O)c2cc3c(Cl)cc(C)cc3n2C)cc1
4. Cc1cc2c(cc(C(=O)N[C@H](CO)c3ccc([S+]([O-])CC(=O)O)cc3)n2C)c(Cl)c1Cl (stereo partly shown)
5. Cc1cc(Cl)c2cc(C(=O)N[C@H](C)c3ccc(S(=O)(=O)CC(=O)OCc4cccc(C(F)(F)F)c4)cc3)n(C)c2c1

Out:
1. 8.10
2. 5.30
3. 5.47
4. 8.52
5. 5.45

* * *

For each of the compounds below, state its IC50.
Target: PHGDH (Homo sapiens (Human))
Assay: 3-Phosphoglycerate Dehydrogenase (PHGDH) Fluorescence Intensity Assay, run at two NAD/3-PG ratios: PHGDH_HIGH_NAD/3-PG (250 μM NAD/500 μM 3-PG) and PHGDH_500_NAD/3-PG (500 μM NAD/500 μM 3-PG)
Type: biochemical
Settings: 250 μM NAD/500 μM 3-PG; read-out: IC50 (PHGDH_HIGH_NAD/3-PG)
One number for each entry, in nM.

Here are 2 compounds. What values of IC50 were reported for them?
1. Cc1cc(Cl)c2cc(C(=O)N[C@H](C)c3ccc(S(=O)(=O)C4(C(=O)O)CC4)cc3)n(C)c2c1 [Example 07-013]
2. CC(C)OC(=O)CS(=O)(=O)c1ccc([C@@H](C)NC(=O)c2cc(-c3ccccc3)nn2C)cc1 [Example 02-011]

Out:
[10, 6720]
